# Test system: KRAS-mutant PDC tumor spheroid with HUVEC/MSC, viability;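 also: spheroids exposed to agents for seven days before reading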
# experiment: Anticancer human tumor 327498-153-R-J2-PDC patient-derived uterine carcinosarcoma cell line growth inhibition [KRAS2]
# cond: second compound 10 µM; first compound 0.01 µM; hits give low values
Entries whose viability, T/C is below 10% take criterion met; entries at or above 10% take criterion not met.

compound="CC(=O)OC12COC1CC(O)C1(C)C(=O)C(O)C3=C(C)C(OC(=O)C(O)C(NC(=O)OC(C)(C)C)c4ccccc4)CC(O)(C(OC(=O)c4ccccc4)C21)C3(C)C (configuration not stated) + CNCc1ccccc1-c1csc(C(C)Nc2nc(C)nc3cc(OC)c(OC)cc23)c1" cat="criterion met"

Qu. I'd appreciate it if you could check whether CC(C)n1nc(-c2ccc3oc(N)nc3c2)c2c(N)ncnc21 + CNCc1ccccc1-c1csc(C(C)Nc2nc(C)nc3cc(OC)c(OC)cc23)c1 has viability, T/C smaller than 10%.
Ans. criterion met

Qu. I'd appreciate it if you could check whether CC(C)n1nc(-c2ccc3oc(N)nc3c2)c2c(N)ncnc21 + CC1OCC2(CCN(c3cnc(Sc4ccnc(N)c4Cl)c(N)n3)CC2)C1N has viability, T/C smaller than 10%.
Ans. criterion met

Qu. I'd appreciate it if you could check whether CN(C)C/C=C/C(=O)Nc1cc2c(Nc3ccc(F)c(Cl)c3)ncnc2cc1O[C@H]1CCOC1 + CNCc1ccccc1-c1csc(C(C)Nc2nc(C)nc3cc(OC)c(OC)cc23)c1 has viability, T/C smaller than 10%.
Ans. criterion met

Qu. I'd appreciate it if you could check whether Cn1ncnc1[C@H]1c2n[nH]c(=O)c3cc(F)cc(c23)N[C@@H]1c1ccc(F)cc1 + CC1OCC2(CCN(c3cnc(Sc4ccnc(N)c4Cl)c(N)n3)CC2)C1N has viability, T/C smaller than 10%.
Ans. criterion not met

Qu. I'd appreciate it if you could check whether CCN1CCN(Cc2ccc(Nc3ncc(F)c(-c4cc(F)c5nc(C)n(C(C)C)c5c4)n3)nc2)CC1 + CNCc1ccccc1-c1csc(C(C)Nc2nc(C)nc3cc(OC)c(OC)cc23)c1 has viability, T/C smaller than 10%.
Ans. criterion met

Qu. I'd appreciate it if you could check whether CCN1CCN(Cc2ccc(Nc3ncc(F)c(-c4cc(F)c5nc(C)n(C(C)C)c5c4)n3)nc2)CC1 + CC1OCC2(CCN(c3cnc(Sc4ccnc(N)c4Cl)c(N)n3)CC2)C1N has viability, T/C smaller than 10%.
Ans. criterion not met

Qu. I'd appreciate it if you could check whether CC(=O)OC12COC1CC(O)C1(C)C(=O)C(O)C3=C(C)C(OC(=O)C(O)C(NC(=O)OC(C)(C)C)c4ccccc4)CC(O)(C(OC(=O)c4ccccc4)C21)C3(C)C (configuration not stated) + CC1OCC2(CCN(c3cnc(Sc4ccnc(N)c4Cl)c(N)n3)CC2)C1N has viability, T/C smaller than 10%.
Ans. criterion not met

Qu. I'd appreciate it if you could check whether CC(=O)Nc1cccc(-n2c(=O)n(C3CC3)c(=O)c3c(Nc4ccc(I)cc4F)n(C)c(=O)c(C)c32)c1 + CNCc1ccccc1-c1csc(C(C)Nc2nc(C)nc3cc(OC)c(OC)cc23)c1 has viability, T/C smaller than 10%.
Ans. criterion met

Qu. I'd appreciate it if you could check whether Cn1ncnc1[C@H]1c2n[nH]c(=O)c3cc(F)cc(c23)N[C@@H]1c1ccc(F)cc1 + COc1cc2nc(C)nc(NC(C)c3cc(N)cc(C(F)(F)F)c3)c2cc1OC1CCOC1 has viability, T/C smaller than 10%.
Ans. criterion not met

Qu. I'd appreciate it if you could check whether Cn1ncnc1[C@H]1c2n[nH]c(=O)c3cc(F)cc(c23)N[C@@H]1c1ccc(F)cc1 + C=CC(=O)N1CCN(c2nc(=O)n(-c3c(C)ccnc3C(C)C)c3nc(-c4c(O)cccc4F)c(F)cc23)C(C)C1 has viability, T/C smaller than 10%.
Ans. criterion not met

Qu. I'd appreciate it if you could check whether CC1COCCN1c1cc(-c2ccnn2C)c2ccnc(-c3ccn[nH]3)c2n1 (configuration not stated) + CC1OCC2(CCN(c3cnc(Sc4ccnc(N)c4Cl)c(N)n3)CC2)C1N has viability, T/C smaller than 10%.
Ans. criterion not met

Qu. I'd appreciate it if you could check whether CN(C)C/C=C/C(=O)Nc1cc2c(Nc3ccc(F)c(Cl)c3)ncnc2cc1O[C@H]1CCOC1 + C=CC(=O)N1CCN(c2nc(=O)n(-c3c(C)ccnc3C(C)C)c3nc(-c4c(O)cccc4F)c(F)cc23)C(C)C1 has viability, T/C smaller than 10%.
Ans. criterion not met

Qu. I'd appreciate it if you could check whether CC(=O)Nc1cccc(-n2c(=O)n(C3CC3)c(=O)c3c(Nc4ccc(I)cc4F)n(C)c(=O)c(C)c32)c1 + C=CC(=O)N1CCN(c2nc(=O)n(-c3c(C)ccnc3C(C)C)c3nc(-c4c(O)cccc4F)c(F)cc23)C(C)C1 has viability, T/C smaller than 10%.
Ans. criterion not met

Qu. I'd appreciate it if you could check whether Cn1ncnc1[C@H]1c2n[nH]c(=O)c3cc(F)cc(c23)N[C@@H]1c1ccc(F)cc1 + CNCc1ccccc1-c1csc(C(C)Nc2nc(C)nc3cc(OC)c(OC)cc23)c1 has viability, T/C smaller than 10%.
Ans. criterion met

Qu. I'd appreciate it if you could check whether CCN1CCN(Cc2ccc(Nc3ncc(F)c(-c4cc(F)c5nc(C)n(C(C)C)c5c4)n3)nc2)CC1 + C=CC(=O)N1CCN(c2nc(=O)n(-c3c(C)ccnc3C(C)C)c3nc(-c4c(O)cccc4F)c(F)cc23)C(C)C1 has viability, T/C smaller than 10%.
Ans. criterion not met

Qu. I'd appreciate it if you could check whether CC(=O)OC12COC1CC(O)C1(C)C(=O)C(O)C3=C(C)C(OC(=O)C(O)C(NC(=O)OC(C)(C)C)c4ccccc4)CC(O)(C(OC(=O)c4ccccc4)C21)C3(C)C (configuration not stated) + C=CC(=O)N1CCN(c2nc(=O)n(-c3c(C)ccnc3C(C)C)c3nc(-c4c(O)cccc4F)c(F)cc23)C(C)C1 has viability, T/C smaller than 10%.
Ans. criterion not met

Qu. I'd appreciate it if you could check whether CN(C)C/C=C/C(=O)Nc1cc2c(Nc3ccc(F)c(Cl)c3)ncnc2cc1O[C@H]1CCOC1 + COc1cc2nc(C)nc(NC(C)c3cc(N)cc(C(F)(F)F)c3)c2cc1OC1CCOC1 has viability, T/C smaller than 10%.
Ans. criterion not met

Qu. I'd appreciate it if you could check whether CC1COCCN1c1cc(-c2ccnn2C)c2ccnc(-c3ccn[nH]3)c2n1 (configuration not stated) + CNCc1ccccc1-c1csc(C(C)Nc2nc(C)nc3cc(OC)c(OC)cc23)c1 has viability, T/C smaller than 10%.
Ans. criterion met

Qu. I'd appreciate it if you could check whether CC(=O)Nc1cccc(-n2c(=O)n(C3CC3)c(=O)c3c(Nc4ccc(I)cc4F)n(C)c(=O)c(C)c32)c1 + CC1OCC2(CCN(c3cnc(Sc4ccnc(N)c4Cl)c(N)n3)CC2)C1N has viability, T/C smaller than 10%.
Ans. criterion not met

Qu. I'd appreciate it if you could check whether CCN1CCN(Cc2ccc(Nc3ncc(F)c(-c4cc(F)c5nc(C)n(C(C)C)c5c4)n3)nc2)CC1 + COc1cc2nc(C)nc(NC(C)c3cc(N)cc(C(F)(F)F)c3)c2cc1OC1CCOC1 has viability, T/C smaller than 10%.
Ans. criterion not met

Qu. I'd appreciate it if you could check whether CC(C)n1nc(-c2ccc3oc(N)nc3c2)c2c(N)ncnc21 + C=CC(=O)N1CCN(c2nc(=O)n(-c3c(C)ccnc3C(C)C)c3nc(-c4c(O)cccc4F)c(F)cc23)C(C)C1 has viability, T/C smaller than 10%.
Ans. criterion met

Values were extracted from PubChem BioAssay AID1963867.
